The origin of these recorded values is patent US12257247B2.

- target.under.test: VAV1 (Homo sapiens, UniProt P15498+Q96SW2)
- Construct: A heterozygous VAV1 C-terminal HiBiT knock-in pool was generated at Monte Rosa Therapeutics from a clonal Jurkat cell; endogenous in cells; host or cells: Jurkat clone stably expressing LgBiT, homozygous GSPT1-G575N; heterozygous VAV1-HiBiT knock-in pool
- method.notes: VAV1 degradation activity, VAV1-HiBiT knock-in Jurkat luminescence assay (Example A, Table 1)
- Type: cell-based
- recorded.conditions: VAV1-HiBiT knock-in Jurkat cells, luminescence read at 6 and 24 hours; read-out: VAV1 DC50
The entries below come with measured log10 DC50 values attached.
Annotation: log10 of DC50, nM basis.

Worked cases, answers included:
compound=Cn1ccc(COc2ccc(-c3cccc([C@@H]4CCC(=O)NC4=O)c3Cl)cc2)n1 measured=0.87
compound="O=C1CCC(c2cccc(-c3ccc(-n4c(F)cccc4=O)nc3)c2Cl)C(=O)N1 (centres unmarked)" measured=2.21
compound="C[C@H]1COC(=O)N1c1ccc(-c2cccc(C3CCC(=O)NC3=O)c2Cl)cc1 (some centres unmarked)" measured=1.69

Enquiry: Give its log10 DC50 value. Item: CC1CCC(=O)N(Cc2ccc(-c3cccc(C4CCC(=O)NC4=O)c3Cl)cc2)C1 (centres unmarked)
Return: 0.78

Enquiry: Give its log10 DC50 value. Item: CC(Oc1ccccn1)c1ccc(-c2cccc(C3CCC(=O)NC3=O)c2Cl)cc1 (centres unmarked)
Return: 1.68

Enquiry: Give its log10 DC50 value. Item: O=C1CCC(c2cccc(-c3ccc(C(=O)N4CCCC4)cc3)c2Cl)C(=O)N1 (centres unmarked)
Return: 1.53

Enquiry: Give its log10 DC50 value. Item: Cn1ccc(C(=O)Nc2ccc(-c3cccc(C4CCC(=O)NC4=O)c3Cl)cc2)n1 (centres unmarked)
Return: 1.54

Enquiry: Give its log10 DC50 value. Item: O=C1CCC(c2cccc(-c3ccc(Cn4ccc(F)cc4=O)cc3)c2Cl)C(=O)N1 (centres unmarked)
Return: 1.84

----------
The entries below come with measured log10 of DC50 values attached.
- target.under.test: VAV1 (Homo sapiens, UniProt P15498+Q96SW2)
- Construct: A heterozygous VAV1 C-terminal HiBiT knock-in pool was generated at Monte Rosa Therapeutics from a clonal Jurkat cell; endogenous in cells; host or cells: Jurkat clone stably expressing LgBiT, homozygous GSPT1-G575N; heterozygous VAV1-HiBiT knock-in pool
- method.notes: VAV1 degradation activity, VAV1-HiBiT knock-in Jurkat luminescence assay (Example A, Table 1)
- Assay type: cell-based
- recorded.conditions: VAV1-HiBiT knock-in Jurkat cells, luminescence read at 6 and 24 hours; read-out: VAV1 DC50
Annotation: log10 of DC50, nM basis.

Worked cases, answers included:
compound="O=C1CCC(c2cccc(-c3ccc(-n4cccnc4=O)c(F)c3)c2Cl)C(=O)N1 (centres unmarked)" parameter_measured="log10 of DC50" measured=1.63
compound="Cn1ccc(CNc2ccc(-c3cccc(C4CCC(=O)NC4=O)c3Cl)cc2)n1 (centres unmarked)" parameter_measured="log10 of DC50" measured=1.06
compound="O=C1CCC(c2cccc(-c3ccc(N4CCOCC4=O)cc3)c2Cl)C(=O)N1 (centres unmarked)" parameter_measured="log10 of DC50" measured=1.24
compound="O=C1CCC(c2cccc(-c3ccc(CN4C(=O)CCn5nccc54)cc3)c2Cl)C(=O)N1 (centres unmarked)" parameter_measured="log10 of DC50" measured=1.47
compound="O=C1CCC(c2cccc(-c3ccc(CN4CC5CCCC5C4=O)cc3)c2Cl)C(=O)N1 (centres unmarked)" parameter_measured="log10 of DC50" measured=0.59
compound="O=C1CCC(c2cccc(-c3ccc(N4COCCC4=O)cc3)c2Cl)C(=O)N1 (centres unmarked)" parameter_measured="log10 of DC50" measured=1.06

Enquiry: Give its log10 of DC50 value. Item: O=C1CCC(c2cccc(-c3ccc(CN4CCN5CCCC5C4=O)cc3)c2Cl)C(=O)N1 (centres unmarked)
Return: 2.00

Enquiry: Give its log10 of DC50 value. Item: CN1CCC[C@H](c2ccc(-c3cccc(C4CCC(=O)NC4=O)c3Cl)cc2)C1=O (some centres unmarked)
Return: 0.89
